# folding stability dG unfold annotations
test: folding stability dG unfold (combined trypsin and chymotrypsin); higher = more stable

- polymer.sequence: "SAGGMKPGEIVEKITIEIEINGKKYKIEMTFYKDNGIIEIKIYNKNGKLIKTFKFYIDPKTKKIILLSAGGS [r16_798_TrROS_Hall]"
  folding stability dG unfold: "3.68 kcal/mol"
- polymer.sequence: "SAGGSAGGSAGKALVFDSPEDLVEKLKENGVELTDIAEVDAPGGPVVLAPIEGIPKPGFGSAGGSAGGSAGG [r11_141_TrMRF]"
  folding stability dG unfold: "0.28 kcal/mol"
- polymer.sequence: "SAGGGMVITTPQTTSTTFSPPTAPAVPAPFTQSSSFTIGNTKVTVTTTQAAGSGTTTVTLTTILPPLASAGG [r13_998_JUSTAS]"
  folding stability dG unfold: "1.12 kcal/mol"
- polymer.sequence: "SAGGSAGGSAGGKPKLTLTLTLKRTVKNKNGKTTEKTLTLTLTFDSKEEAENALKELGFSAGGSAGGSAGGS [r10_1062_TrROS_Hall]"
  folding stability dG unfold: "2.67 kcal/mol"
- polymer.sequence: "SAGVTVERKPGDGSLTVTVPADDGPLTIEVDLLPNTGTLKATVTYDDGTPATYTFPGGTLEDIIERLHSAGG [r19_159_TrMRF]"
  folding stability dG unfold: "-0.153 kcal/mol"
- polymer.sequence: "SAGGSAGGSAGGGSVVTTETSVSPNGVVTTTTTTTFLDPDGNPLGTTTTTTAHAAPPTTSAGGSAGGSAGGS [r10_403_JUSTAS]"
  folding stability dG unfold: "2.12 kcal/mol"
- polymer.sequence: "SAGGSMIPLTVTRYDPNSDKPVSTTPVVYDPETGTWTAYPPDGSRTTYALSLEDLIAALPSTWSVGPSAGGS [r16_543_JUSTAS]"
  folding stability dG unfold: "0.567 kcal/mol"
- polymer.sequence: "SAGGMPREVAKEMIENDKDAKVTFTIYRFPDGPVPSVTVEVIEADVKDPDAFLESVPEGWLVLVEPASAGGS [r16_116_TrMRF]"
  folding stability dG unfold: "0.769 kcal/mol"
- polymer.sequence: "SMKIIIEIEVEPGKTEEEIKEEAEALAKELAKKLGLPKEAKVKIEKVKLEDGKLRYIITIEVDGKTIEFESA [r9_776_TrROS_Hall]"
  folding stability dG unfold: "3.75 kcal/mol"
- polymer.sequence: "SAGGMTPAVTETTIELPASDPEAAIAALRAAGWELLARERGPDGSVRMVFAAPTRRVTVDFVGPAAASAGGS [r16_170_JUSTAS]"
  folding stability dG unfold: "1.71 kcal/mol"
- polymer.sequence: "SAGGSAGGSMNPEVPYAKVTLELKLPDGTTATLTLEVPLEEIPKVIEELKKKGYEILSIKIEPSAGGSAGGS [r12_986_JUSTAS]"
  folding stability dG unfold: "5.07 kcal/mol"
- polymer.sequence: "SMSVVVPPDEGLTVTLTTLPGGTIEIHVGDTVLTRDVAPGETLTVTVPPDRTGNTVTVVGPGGVVVTSSGSA [r9_143_JUSTAS]"
  folding stability dG unfold: "0.95 kcal/mol"
- polymer.sequence: "SAGNKIEIEPVNYEPMPNGYYRVTARVTIENPNNKKPWDIDVEAYYPMDPNGQPMNVDEIAKEAIKKIFSAG [r5_604_TrROS]"
  folding stability dG unfold: "1.07 kcal/mol"
- polymer.sequence: "SAGGSAGGWIPPEMARNIAKTLRDKGWPVEDIEVEREPNGWVTVDVDIQYPDGKKRKYPIQIPYSAGGSAGG [r6_762_TrROS]"
  folding stability dG unfold: "0.0547 kcal/mol"
